Value source: patent US20250074920A1

The compounds listed here are annotated with their % Ctrl.
- System: TIE2
- Assay Procedure: KINOMEscan kinase binding assay
- Cond: at 1 μM
Reply numerically in %, unit not repeated.

Observe how each entry below is paired with its result.
[[record]]
item_smiles = "Cc1cc2c([nH]1)/C=C1\\C(=O)Nc3c(Cl)cc(cc31)-c1cn(C)nc1COC[C@@H](C)NC2=O"
tested_on = "TIE2"
readout_kind = "% Ctrl"
reported_measurement = 97

[[record]]
item_smiles = "Cc1cc2c([nH]1)/C=C1\\C(=O)Nc3c(Cl)cc(cc31)-c1cn(C)nc1COC[C@@H](C)N(C)C2=O"
tested_on = "TIE2"
readout_kind = "% Ctrl"
reported_measurement = 92


Q. Report % Ctrl for C[C@@H]1COCc2nn(C)cc2-c2cc(Cl)c3c(c2)/C(=C/c2[nH]ccc2C(=O)N1)C(=O)N3 please.
A. 91

Q. Report % Ctrl for Cc1cc2c([nH]1)/C=C1\C(=O)Nc3ccc(cc31)-c1c(nn(C)c1C)OCCCN(C)C2=O please.
A. 95

Q. Report % Ctrl for Cc1cc2c([nH]1)/C=C1\C(=O)Nc3ccc(cc31)-c1c(nn(C)c1C)COCCN(C)C2=O please.
A. 63

* * *

- System: FGFR3
- Assay Procedure: KINOMEscan kinase binding assay
- Cond: at 1 μM
The compounds listed here are annotated with their % Ctrl.
Reply numerically in %, unit not repeated.

Observe how each entry below is paired with its result.
[[record]]
compound = "Cc1cc2c([nH]1)/C=C1\\C(=O)Nc3ccc(cc31)-c1c(nn(C)c1C)OCCCN(C)C2=O [Cpd. 1]"
readout_kind = "% Ctrl"
reported_measurement = 96

[[record]]
compound = "C[C@@H]1COCc2nn(C)cc2-c2cc(Cl)c3c(c2)/C(=C/c2[nH]ccc2C(=O)N1)C(=O)N3 [Cpd. 4]"
readout_kind = "% Ctrl"
reported_measurement = 87

[[record]]
compound = "Cc1cc2c([nH]1)/C=C1\\C(=O)Nc3c(Cl)cc(cc31)-c1cn(C)nc1COC[C@@H](C)N(C)C2=O [Cpd. 5]"
readout_kind = "% Ctrl"
reported_measurement = 90


Q. Report % Ctrl for Cc1cc2c([nH]1)/C=C1\C(=O)Nc3c(Cl)cc(cc31)-c1cn(C)nc1COC[C@@H](C)NC2=O [Cpd. 3] please.
A. 89

Q. Report % Ctrl for Cc1cc2c([nH]1)/C=C1\C(=O)Nc3ccc(cc31)-c1c(nn(C)c1C)COCCN(C)C2=O [Cpd. 2] please.
A. 88

* * *

- Test system: ROS1
- Assay Procedure: KINOMEscan kinase binding assay
- Cond: at 1 μM
The compounds listed here are annotated with their % Ctrl.
Reply numerically in %, unit not repeated.

Observe how each entry below is paired with its result.
[[record]]
item_smiles = "C[C@@H]1COCc2nn(C)cc2-c2cc(Cl)c3c(c2)/C(=C/c2[nH]ccc2C(=O)N1)C(=O)N3"
readout_kind = "% Ctrl"
output_unit = "%"
reported_measurement = 68

[[record]]
item_smiles = "Cc1cc2c([nH]1)/C=C1\\C(=O)Nc3c(Cl)cc(cc31)-c1cn(C)nc1COC[C@@H](C)N(C)C2=O"
readout_kind = "% Ctrl"
output_unit = "%"
reported_measurement = 69

[[record]]
item_smiles = "Cc1cc2c([nH]1)/C=C1\\C(=O)Nc3ccc(cc31)-c1c(nn(C)c1C)COCCN(C)C2=O"
readout_kind = "% Ctrl"
output_unit = "%"
reported_measurement = 97

[[record]]
item_smiles = "Cc1cc2c([nH]1)/C=C1\\C(=O)Nc3ccc(cc31)-c1c(nn(C)c1C)OCCCN(C)C2=O"
readout_kind = "% Ctrl"
output_unit = "%"
reported_measurement = 91


Attention now shifts to the item below.
Q. Report % Ctrl for Cc1cc2c([nH]1)/C=C1\C(=O)Nc3c(Cl)cc(cc31)-c1cn(C)nc1COC[C@@H](C)NC2=O please.
A. 62

* * *

- System: IGF1R
- Assay Procedure: KINOMEscan kinase binding assay
- Cond: at 1 μM
The compounds listed here are annotated with their % Ctrl.
Reply numerically in %, unit not repeated.

Observe how each entry below is paired with its result.
[[record]]
item_smiles = "Cc1cc2c([nH]1)/C=C1\\C(=O)Nc3ccc(cc31)-c1c(nn(C)c1C)OCCCN(C)C2=O"
reported_measurement = 100

[[record]]
item_smiles = "Cc1cc2c([nH]1)/C=C1\\C(=O)Nc3c(Cl)cc(cc31)-c1cn(C)nc1COC[C@@H](C)N(C)C2=O"
reported_measurement = 98

[[record]]
item_smiles = "Cc1cc2c([nH]1)/C=C1\\C(=O)Nc3ccc(cc31)-c1c(nn(C)c1C)COCCN(C)C2=O"
reported_measurement = 88


Q. Report % Ctrl for C[C@@H]1COCc2nn(C)cc2-c2cc(Cl)c3c(c2)/C(=C/c2[nH]ccc2C(=O)N1)C(=O)N3 please.
A. 94

Q. Report % Ctrl for Cc1cc2c([nH]1)/C=C1\C(=O)Nc3c(Cl)cc(cc31)-c1cn(C)nc1COC[C@@H](C)NC2=O please.
A. 95

* * *

The compounds listed here are annotated with their % Ctrl.
- Tested on: EGFR(S752-1759del)
- Assay Procedure: KINOMEscan kinase binding assay
- Cond: at 1 μM
Reply numerically in %, unit not repeated.

Observe how each entry below is paired with its result.
[[record]]
item_smiles = "C[C@@H]1COCc2nn(C)cc2-c2cc(Cl)c3c(c2)/C(=C/c2[nH]ccc2C(=O)N1)C(=O)N3"
tested_on = "EGFR(S752-1759del)"
readout_kind = "% Ctrl"
reported_measurement = 93

[[record]]
item_smiles = "Cc1cc2c([nH]1)/C=C1\\C(=O)Nc3c(Cl)cc(cc31)-c1cn(C)nc1COC[C@@H](C)N(C)C2=O"
tested_on = "EGFR(S752-1759del)"
readout_kind = "% Ctrl"
reported_measurement = 100

[[record]]
item_smiles = "Cc1cc2c([nH]1)/C=C1\\C(=O)Nc3ccc(cc31)-c1c(nn(C)c1C)COCCN(C)C2=O"
tested_on = "EGFR(S752-1759del)"
readout_kind = "% Ctrl"
reported_measurement = 80

[[record]]
item_smiles = "Cc1cc2c([nH]1)/C=C1\\C(=O)Nc3ccc(cc31)-c1c(nn(C)c1C)OCCCN(C)C2=O"
tested_on = "EGFR(S752-1759del)"
readout_kind = "% Ctrl"
reported_measurement = 88


Attention now shifts to the item below.
Q. Report % Ctrl for Cc1cc2c([nH]1)/C=C1\C(=O)Nc3c(Cl)cc(cc31)-c1cn(C)nc1COC[C@@H](C)NC2=O please.
A. 94

* * *

The compounds listed here are annotated with their % Ctrl.
- Test system: FLT3(K663Q)
- Assay Procedure: KINOMEscan kinase binding assay
- Cond: at 1 μM
Reply numerically in %, unit not repeated.

Observe how each entry below is paired with its result.
[[record]]
item_smiles = "C[C@@H]1COCc2nn(C)cc2-c2cc(Cl)c3c(c2)/C(=C/c2[nH]ccc2C(=O)N1)C(=O)N3"
reported_measurement = 90

[[record]]
item_smiles = "Cc1cc2c([nH]1)/C=C1\\C(=O)Nc3c(Cl)cc(cc31)-c1cn(C)nc1COC[C@@H](C)N(C)C2=O"
reported_measurement = 87

[[record]]
item_smiles = "Cc1cc2c([nH]1)/C=C1\\C(=O)Nc3ccc(cc31)-c1c(nn(C)c1C)OCCCN(C)C2=O"
reported_measurement = 80

[[record]]
item_smiles = "Cc1cc2c([nH]1)/C=C1\\C(=O)Nc3c(Cl)cc(cc31)-c1cn(C)nc1COC[C@@H](C)NC2=O"
reported_measurement = 100


Attention now shifts to the item below.
Q. Report % Ctrl for Cc1cc2c([nH]1)/C=C1\C(=O)Nc3ccc(cc31)-c1c(nn(C)c1C)COCCN(C)C2=O please.
A. 47

* * *

The compounds listed here are annotated with their % Ctrl.
- Test system: CSF1R
- Assay Procedure: KINOMEscan kinase binding assay
- Cond: at 1 μM
Reply numerically in %, unit not repeated.

Observe how each entry below is paired with its result.
[[record]]
item_smiles = "Cc1cc2c([nH]1)/C=C1\\C(=O)Nc3c(Cl)cc(cc31)-c1cn(C)nc1COC[C@@H](C)N(C)C2=O"
tested_on = "CSF1R"
reported_measurement = 96

[[record]]
item_smiles = "Cc1cc2c([nH]1)/C=C1\\C(=O)Nc3ccc(cc31)-c1c(nn(C)c1C)COCCN(C)C2=O"
tested_on = "CSF1R"
reported_measurement = 82

[[record]]
item_smiles = "Cc1cc2c([nH]1)/C=C1\\C(=O)Nc3c(Cl)cc(cc31)-c1cn(C)nc1COC[C@@H](C)NC2=O"
tested_on = "CSF1R"
reported_measurement = 100

[[record]]
item_smiles = "C[C@@H]1COCc2nn(C)cc2-c2cc(Cl)c3c(c2)/C(=C/c2[nH]ccc2C(=O)N1)C(=O)N3"
tested_on = "CSF1R"
reported_measurement = 92


Attention now shifts to the item below.
Q. Report % Ctrl for Cc1cc2c([nH]1)/C=C1\C(=O)Nc3ccc(cc31)-c1c(nn(C)c1C)OCCCN(C)C2=O please.
A. 98
